Documented IC50 across a set of compounds
- Tested on: IL10 secretion in OCI-LY10 cells
- method summary: Human IL10 secretion assay, Assay 1 (HTRF)
- Type: cell-based
- measurement context: 24 h incubation, read-out: IL-10 Secretion IC50 [nM] Assay 1

Q: // fetch IC50 given entry Cn1cnc(-c2ncc(NC(=O)C3CC(C)(C)c4c3cnc3cc(Cl)nn43)cc2Cl)c1 (single isomer, unassigned)
A: ≥ 1000 nM

Q: Indicate the recorded IC50 value for this compound: CC(C)(O)c1cnn(-c2ncc(NC(=O)C3CC(C)(C)c4c3cnc3cc(Cl)nn43)cc2Cl)n1 (single isomer, unassigned)
A: 100 to 1000 nM

Q: Using known records, supply IC50 for CC1(C)CC(C(=O)Nc2cnc(-n3ncc(CO)n3)c(Cl)c2)c2cnc3cc(Cl)nn3c21 (single isomer, unassigned)
A: 100 to 1000 nM

---

The following compounds are shown together with reported IC50 values.
- target: full-length MALT1 protein His-MALT1(1-824) (Homo sapiens, UniProt Q9UDY8)
- Construct: full-length MALT1 protein His-MALT1(1-824); His (N); made in house; host or cells: baculovirus-infected insect cells
- Sequence (Q9UDY8 1-824): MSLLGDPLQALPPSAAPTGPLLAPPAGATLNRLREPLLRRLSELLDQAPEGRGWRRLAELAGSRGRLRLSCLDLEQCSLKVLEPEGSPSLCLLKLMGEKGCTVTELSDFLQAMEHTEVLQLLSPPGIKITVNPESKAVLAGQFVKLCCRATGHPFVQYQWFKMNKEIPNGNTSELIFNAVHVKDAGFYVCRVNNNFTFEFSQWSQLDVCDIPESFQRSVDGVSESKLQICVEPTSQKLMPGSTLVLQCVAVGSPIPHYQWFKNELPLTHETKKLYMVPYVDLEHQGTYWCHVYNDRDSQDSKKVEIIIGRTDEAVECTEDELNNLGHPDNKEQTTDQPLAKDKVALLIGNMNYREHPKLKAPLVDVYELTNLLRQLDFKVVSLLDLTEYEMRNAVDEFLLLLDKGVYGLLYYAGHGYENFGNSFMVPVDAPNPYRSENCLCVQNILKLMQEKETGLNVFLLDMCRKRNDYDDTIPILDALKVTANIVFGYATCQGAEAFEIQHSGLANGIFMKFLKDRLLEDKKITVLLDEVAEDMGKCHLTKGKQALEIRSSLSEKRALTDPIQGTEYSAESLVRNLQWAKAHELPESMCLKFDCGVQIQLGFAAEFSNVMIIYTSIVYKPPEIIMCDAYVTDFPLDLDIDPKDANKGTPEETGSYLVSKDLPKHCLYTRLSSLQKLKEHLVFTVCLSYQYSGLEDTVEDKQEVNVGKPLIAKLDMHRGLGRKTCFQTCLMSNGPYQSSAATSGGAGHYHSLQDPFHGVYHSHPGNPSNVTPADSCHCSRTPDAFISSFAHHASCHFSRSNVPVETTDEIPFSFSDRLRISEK
- method summary: MALT1 protease assay, Assay 2 (1 nM MALT1, Ac-LRSR-AMC substrate)
- Assay type: biochemical
- measurement context: 1 nM MALT1, 50 μM Ac-LRSR-AMC, 2 h pre-incubation, 8 hr incubation at RT

See these solved cases before continuing.
compound: CC1(C)C[C@@H](C(=O)Nc2cnc(OC(F)F)c(C#N)c2)c2cnn3cc(C(F)F)nc3c21 (single isomer, unassigned) [Example 198]
target: full-length MALT1 protein His-MALT1(1-824) (Homo sapiens, UniProt Q9UDY8)
observed: ≥ 1000 nM
//
compound: Cc1cn2ncc3c(c2n1)C(C)(C)C[C@H]3C(=O)Nc1cnc(-n2nccn2)c(Cl)c1 (single isomer, unassigned) [Example 188]
target: full-length MALT1 protein His-MALT1(1-824) (Homo sapiens, UniProt Q9UDY8)
observed: 100 to 1000 nM

// moving on: another record for IC50
Q: Look up and report measured IC50 for this entry: CCO[C@@]1(C(F)(F)F)C[C@H](C(=O)Nc2cnc(-n3nccn3)c(Cl)c2)c2cnc3cc(Cl)nn3c21 (single isomer, unassigned) [Example 168]
A: 100 to 1000 nM

---

- target: full-length MALT1 protein His-MALT1(1-824) (Homo sapiens, UniProt Q9UDY8)
- Construct: full-length MALT1 protein His-MALT1(1-824); His (N); made in house; host or cells: baculovirus-infected insect cells
- Sequence (Q9UDY8 1-824): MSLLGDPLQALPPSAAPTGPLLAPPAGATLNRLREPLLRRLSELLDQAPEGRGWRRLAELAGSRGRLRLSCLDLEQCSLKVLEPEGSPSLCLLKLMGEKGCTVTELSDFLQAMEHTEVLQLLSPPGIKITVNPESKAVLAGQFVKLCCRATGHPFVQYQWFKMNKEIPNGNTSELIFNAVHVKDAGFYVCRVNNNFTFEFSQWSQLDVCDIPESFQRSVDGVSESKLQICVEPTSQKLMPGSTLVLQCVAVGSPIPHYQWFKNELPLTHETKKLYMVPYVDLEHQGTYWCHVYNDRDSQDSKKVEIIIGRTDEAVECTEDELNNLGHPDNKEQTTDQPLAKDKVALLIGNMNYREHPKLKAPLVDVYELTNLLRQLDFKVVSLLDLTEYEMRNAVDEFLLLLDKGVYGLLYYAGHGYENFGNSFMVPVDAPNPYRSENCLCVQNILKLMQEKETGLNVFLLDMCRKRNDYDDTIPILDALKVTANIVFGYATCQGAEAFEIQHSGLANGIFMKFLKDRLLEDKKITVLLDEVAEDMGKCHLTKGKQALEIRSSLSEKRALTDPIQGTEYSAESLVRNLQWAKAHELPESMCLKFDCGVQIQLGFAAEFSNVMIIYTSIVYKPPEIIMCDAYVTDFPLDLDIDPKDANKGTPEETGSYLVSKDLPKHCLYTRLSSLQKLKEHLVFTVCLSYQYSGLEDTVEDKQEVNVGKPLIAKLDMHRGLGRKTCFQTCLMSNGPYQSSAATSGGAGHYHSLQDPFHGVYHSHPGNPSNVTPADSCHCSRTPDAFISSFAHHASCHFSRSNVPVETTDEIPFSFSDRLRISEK
- method summary: MALT1 protease assay, Assay 2 (1 nM MALT1, Ac-LRSR-AMC substrate)
- Type: biochemical
- measurement context: 1 nM MALT1, 50 μM Ac-LRSR-AMC, 2 h pre-incubation, 8 hr incubation at RT
Quick reference for IC50 among some molecules

molecule: CC1(C)CC(C(=O)Nc2cnc(-n3nccn3)c(C(F)(F)F)c2)c2cnn3cc(Cl)nc3c21 (single isomer, unassigned)
IC50: < 10 nM

molecule: CC1(C)C[C@@H](C(=O)Nc2cnc(-n3nccn3)c(C(F)(F)F)c2)c2cnn3cc(Cl)nc3c21 (single isomer, unassigned)
IC50: 100 to 1000 nM

molecule: CC(C)(O)c1ncc(NC(=O)[C@@H]2CC3(CCC3)c3c2cnc2cc(F)nn32)cc1Cl (single isomer, unassigned)
IC50: ≥ 1000 nM

Q: Using known records, supply IC50 for CC1(C)C[C@@H](C(=O)Nc2cc(N=S(C)(C)=O)nc(C(F)(F)F)c2)c2cnc3cc(F)nn3c21 (single isomer, unassigned)
A: ≥ 1000 nM

Q: Quick one: give measured IC50 for O=C(Nc1cnc(-n2nccn2)c(Cl)c1)C1CC2(CC2)c2c1cnc1cc(F)nn21 (single isomer, unassigned)
A: 10 to 100 nM

Q: Quote IC50 reported for O=C(Nc1cnc(-n2nccn2)c(Cl)c1)C1CC2(CC2)c2c1cnc1cc(Cl)nn21 (single isomer, unassigned) please.
A: 10 to 100 nM

---

- target: full-length MALT1 protein His-MALT1(1-824) (Homo sapiens)
- Construct: full-length MALT1 protein His-MALT1(1-824); His (N); made in house; host or cells: baculovirus-infected insect cells
- method summary: MALT1 protease assay, Assay 2 (1 nM MALT1, Ac-LRSR-AMC substrate)
- Assay type: biochemical
- measurement context: 1 nM MALT1, 50 μM Ac-LRSR-AMC, 2 h pre-incubation, 8 hr incubation at RT
Measured IC50 of individual entries

See these solved cases before continuing.
compound: CC1(C)C[C@@H](C(=O)Nc2cnc(-n3nccn3)c(C(F)(F)F)c2)c2cnc3cc(F)nn3c21 (single isomer, unassigned) [Example 150]
IC50: 10 to 100 nM
--
compound: CC1(C)CC(C(=O)Nc2cnc(-n3ncnn3)c(Cl)c2)c2cnc3cc(Cl)nn3c21 (stereo not shown) [Example 120]
IC50: 10 to 100 nM
--
compound: CC1(C)CC(C(=O)Nc2cnc(OC(F)F)c(C#N)c2)c2cnc3cc(F)nn3c21 (single isomer, unassigned) [Example 84]
IC50: < 10 nM

Q: Provide the reported IC50 (system: full-length MALT1 protein His-MALT1(1-824) (Homo sapiens)) for CC1(C)CC(C(=O)Nc2cnc(OC(F)F)c(C#N)c2)c2cnc3cc(Cl)nn3c21 (single isomer, unassigned) [Example 78]
A: 100 to 1000 nM

Q: Using full-length MALT1 protein His-MALT1(1-824) (Homo sapiens) as the test system, report measured IC50 of CC1(C)C[C@@H](C(=O)Nc2cnc(C(=O)NC3CC3)c(C(F)F)c2)c2cnc3cc(Cl)nn3c21 (single isomer, unassigned) [Example 172] .
A: ≥ 1000 nM

Q: Quote full-length MALT1 protein His-MALT1(1-824) (Homo sapiens) IC50 for entry Cc1cc(NC(=O)C2CC(C)(C)c3c2cnc2cc(F)nn32)cnc1N1CCC1 (stereo not shown) [Example 179] .
A: ≥ 1000 nM

Q: Answer briefly: IC50 recorded on full-length MALT1 protein His-MALT1(1-824) (Homo sapiens) for O=C(Nc1cnc(C(O)C(F)F)c(Cl)c1)C1CC2(CCC2)c2c1cnc1cc(F)nn21 (single isomer, unassigned) [Example 133]
A: ≥ 1000 nM

Q: Please tell me the measured IC50 for Cc1nnn(-c2ncc(NC(=O)[C@H]3CC(C)(C)c4c3cnc3cc(Cl)nn43)cc2Cl)n1 (single isomer, unassigned) [Example 140] ; system: full-length MALT1 protein His-MALT1(1-824) (Homo sapiens).
A: 100 to 1000 nM

Q: GET IC50 | system: full-length MALT1 protein His-MALT1(1-824) (Homo sapiens) | item: Cc1cc2c(F)cc3c(n2n1)C(C)(C)CC3C(=O)Nc1cnc(-n2nccn2)c(Cl)c1 (stereo not shown) [Example 171]
A: 10 to 100 nM
